These data points were gathered from patent EP4772535A1.

For each entry below, report its Kd value.
# Target under test: T1, human/cynomolgus monkey ROR1 protein (Acro Biosystems, Cat. No.: RO1-H522y) (human/cynomolgus monkey, UniProt Q01973 30-403)
# T1 construct: Bought SPR analyte
# T1 sequence (Q01973 30-403 limits assumed): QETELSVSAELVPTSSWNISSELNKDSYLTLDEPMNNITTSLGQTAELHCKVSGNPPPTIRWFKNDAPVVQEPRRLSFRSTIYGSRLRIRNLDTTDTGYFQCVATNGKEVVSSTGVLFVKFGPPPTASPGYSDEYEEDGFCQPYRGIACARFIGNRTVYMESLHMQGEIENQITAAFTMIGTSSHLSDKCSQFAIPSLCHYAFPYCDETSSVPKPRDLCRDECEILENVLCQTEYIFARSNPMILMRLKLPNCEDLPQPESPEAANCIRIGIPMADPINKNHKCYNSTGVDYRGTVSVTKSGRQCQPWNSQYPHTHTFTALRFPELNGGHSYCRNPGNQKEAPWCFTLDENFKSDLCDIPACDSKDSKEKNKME
# Assay procedure: SPR (Biacore), antibody captured on anti-hIgG CM5 chip, ROR1 protein as analyte, method of Example 5
Give the value, in units of pM, as a plain number.

-- ask GET /values?readout=Kd&item= hz137G11D10-3.1 (antibody, human IgG1, kappa, V domains shown, Humanized, human IgG1/kappa) VH: QVQLQESGPGLVKPSQTLSLTCTVSGYSITSDYAWNWIRQHPGKGLEWIGYITYSASTSYNPSLKSRVTISRDTSKNQFSLKLSSVTAADTAVYYCARGAGTYYFDYWGQGTLVTVSS VL: DIQMTQSPSSLSASVGDRVTITCITSTDIDEDMNWYQQKPGKAPKLLISEDNSLRPGVPSRFSSSGYGTDFTLTISSLQPEDFATYYCLQTNNLPLTFGQGTKVEIKR
-- reply 172

-- ask Same again, this time with hz135A2B10-1.3 (antibody, human IgG1, kappa, V domains shown, Humanized, human IgG1/kappa) VH: QVQLVESGGGLVQPGGSLRLSCAASGFAFSTYGMAWVRQAPGKRLEWVASIHKGGFSTYYPDNVKGRFTISRDNDKNSLYLQMNSLRAEDTAVYYCIRHDWDGAMDYWGQGTLVTVSS VL: DIQMTQSPSSLSASVGDRVTITCKASQDINSYLNWYQQKPGKAPKTLIYRANRLVDGVPSRFSGSGSGQDYTLTISSLQPEDFATYYCLQFDEFPYTFGQGTKVEIKR
-- reply 575

-- ask Also check hz137G11D10-1.2 (antibody, human IgG1, kappa, V domains shown, Humanized, human IgG1/kappa) VH: QVQLQESGPGLVKPSQTLSLTCTVSGYSITSDYAWNWIRQHPGKGLEWIGYITYSASTSYNPSLKSRVTISRDTSKNQFFLKLSSVTAADTAVYYCARGAGTYYFDYWGQGTLVTVSS VL: ETTLTQSPAFMSATPGDKVNISCITSTDIDEDMNWYQQKPGEAAKLIISEDNSLRPGIPPRFSSSGYGTDFTLTINNIESEDAAYYFCLQTNNLPLTFGQGTKVEIKR
-- reply 105

-- ask Query hz137G11D10-1.1 (antibody, human IgG1, kappa, V domains shown, Humanized, human IgG1/kappa) VH: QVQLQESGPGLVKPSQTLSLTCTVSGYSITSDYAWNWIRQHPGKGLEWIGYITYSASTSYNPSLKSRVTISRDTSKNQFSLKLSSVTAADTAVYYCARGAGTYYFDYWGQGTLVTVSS VL: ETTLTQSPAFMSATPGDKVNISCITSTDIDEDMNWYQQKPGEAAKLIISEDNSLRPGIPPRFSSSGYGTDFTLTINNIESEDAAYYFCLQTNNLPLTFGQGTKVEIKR next
-- reply 145

-- ask # repeat for hz137G11D10-2.1 (antibody, human IgG1, kappa, V domains shown, Humanized, human IgG1/kappa) VH: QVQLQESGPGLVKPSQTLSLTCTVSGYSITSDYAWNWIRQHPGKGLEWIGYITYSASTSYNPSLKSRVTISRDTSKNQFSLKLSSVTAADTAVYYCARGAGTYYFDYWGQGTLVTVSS VL: DIQMTQSPSSLSASVGDRVTITCITSTDIDEDMNWYQQKPGKAPKLLIYEDNSLRPGVPSRFSGSGYGTDFTLTISSLQPEDFATYYCLQTNNLPLTFGQGTKVEIKR
-- reply 289
